meta.source: ChEMBL document CHEMBL3885861

Each entry below lists one item and its recorded MCHC value.
Species on record: Rattus norvegicus
Test details: Open TG-GATES - Regimen: Daily Repeat
Format: toxicity, organism-based, Sprague-Dawley
Set-up: regimen Daily Repeat, gender Male, age 6 weeks
Conditions used: in vivo, po, 300 mg/kg, […], tissue Blood, route gavage, dose level Middle, time 7 day
Provide only the numeric value, understood in %.

# Compound, Assay value
records = [
    ("O=C(N[C@H](CO)[C@H](O)c1ccc([N+](=O)[O-])cc1)C(Cl)Cl", 32.4),
    ("CC(C)(S)[C@@H](N)C(=O)O", 33.1),
    ("CCN1CCCC1CNC(=O)c1cc(S(N)(=O)=O)ccc1OC (centres undefined) [SULPIRIDE]", 33),
]

Return MCHC for the following compound: `O=C(O)c1cccnc1` 33.4

====

Species on record: Rattus norvegicus
Test details: Open TG-GATES - Regimen: Daily Repeat
Type: toxicity, organism-based, Sprague-Dawley
Design: regimen Daily Repeat, gender Male, age 6 weeks
Conditions used: in vivo, po, 0 mg/kg, […], tissue Plasma, route gavage, dose level Control, time 14 day
Measured property: TBIL (mg/dL)
Provide only the numeric value, understood in mg/dL.

Return TBIL for the following compound: `CCC(C)(C)C(=O)O[C@H]1C[C@@H](C)C=C2C=C[C@H](C)[C@H](CC[C@@H]3C[C@@H](O)CC(=O)O3)[C@H]21` 0.3

Return TBIL for the following compound: CC(C)C(=O)Nc1ccc([N+](=O)[O-])c(C(F)(F)F)c1 [FLUTAMIDE] 0.2

Return TBIL for the following compound: `Oc1ncnc2[nH]ncc12` 0.3

Return TBIL for the following compound: `CCSCC[C@H](N)C(=O)O` 0.1

Return TBIL for the following compound: CCN1CCCC1CNC(=O)c1cc(S(N)(=O)=O)ccc1OC (stereo not given) [SULPIRIDE] 0.056

====

Species: Rattus norvegicus
Test details: Open TG-GATES - Regimen: Daily Repeat
Assay type: toxicity, organism-based, Sprague-Dawley
Design: regimen Daily Repeat, gender Male, age 6 weeks
Conditions used: in vivo, po, 0 mg/kg, […], tissue Plasma, route gavage, dose level Control, time 7 day
Measured property: AST (IU/L)
Provide only the numeric value, understood in IU/L.

# Compound, AST / IU/L
measured = [
    ("CC(=O)Oc1cc(C(C)C)c(OCCN(C)C)cc1C", 71.2),
    ("Nc1nc(N)c2nc(-c3ccccc3)c(N)nc2n1", 63.4),
    ("CC(C)(S)[C@@H](N)C(=O)O", 68.6),
    ("CC(=N)S [THIOACETAMIDE]", 56.8),
    ("Oc1ncnc2[nH]ncc12", 56.2),
    ("O=C(O)c1cccnc1", 67),
]

Return AST for the following compound: `CCc1oc2ccccc2c1C(=O)c1cc(I)c(O)c(I)c1` 62.8

Return AST for the following compound: `CN1C(=O)OC(C)(C)C1=O` 67.4

Return AST for the following compound: `C[C@]12CCC(=O)C=C1CC[C@@H]1[C@@H]2CC[C@@]2(C)[C@H]1CC[C@]2(C)O` 71.6

Return AST for the following compound: CC(C)C(=O)Nc1ccc([N+](=O)[O-])c(C(F)(F)F)c1 [FLUTAMIDE] 61.6

Return AST for the following compound: CCN1CCCC1CNC(=O)c1cc(S(N)(=O)=O)ccc1OC (stereo not given) [SULPIRIDE] 64.8

Return AST for the following compound: `C[C@](N)(Cc1ccc(O)c(O)c1)C(=O)O` 72

Return AST for the following compound: `O=C(N[C@H](CO)[C@H](O)c1ccc([N+](=O)[O-])cc1)C(Cl)Cl` 69.4

Return AST for the following compound: `CCC(C)(C)C(=O)O[C@H]1C[C@@H](C)C=C2C=C[C@H](C)[C@H](CC[C@@H]3C[C@@H](O)CC(=O)O3)[C@H]21` 63.4

Return AST for the following compound: `CCSCC[C@H](N)C(=O)O` 62.2

====

Species on record: Rattus norvegicus
Test details: Open TG-GATES - Regimen: Single
Format: toxicity, organism-based, Sprague-Dawley
Design: regimen Single, gender Male, age 6 weeks
Conditions used: in vivo, po, 0 mg/kg, 9 h, tissue Plasma, route gavage, dose level Control
Each entry below lists one item and its recorded ALT value.
Provide only the numeric value, understood in IU/L.

Worked set:
# Molecule, ALT (IU/L)
records = [
    ("CC(=O)Oc1cc(C(C)C)c(OCCN(C)C)cc1C", 36.8),
    ("O=C(N[C@H](CO)[C@H](O)c1ccc([N+](=O)[O-])cc1)C(Cl)Cl", 36),
]

Return ALT for the following molecule: CC(C)C(=O)Nc1ccc([N+](=O)[O-])c(C(F)(F)F)c1 [FLUTAMIDE] 32.6

Return ALT for the following molecule: `CN1C(=O)OC(C)(C)C1=O` 38

Return ALT for the following molecule: `CC(C)(S)[C@@H](N)C(=O)O` 40.6

====

Species on record: Rattus norvegicus
Test details: Open TG-GATES - Regimen: Daily Repeat
Format: toxicity, organism-based, Sprague-Dawley
Design: regimen Daily Repeat, gender Male, age 6 weeks
Conditions used: in vivo, po, 0 mg/kg, 72 h, tissue Blood, route gavage, dose level Control, time 3 day
Measured property: MCHC

Worked set:
# Compound, Assay value
records = [
    ("CC(C)(S)[C@@H](N)C(=O)O", "32.7%"),
    ("C[C@](N)(Cc1ccc(O)c(O)c1)C(=O)O", "34.1%"),
    ("CCC(C)(C)C(=O)O[C@H]1C[C@@H](C)C=C2C=C[C@H](C)[C@H](CC[C@@H]3C[C@@H](O)CC(=O)O3)[C@H]21", "33.1%"),
    ("CCN1CCCC1CNC(=O)c1cc(S(N)(=O)=O)ccc1OC (stereo not given) [SULPIRIDE]", "32.7%"),
]

Return MCHC for the following compound: `C[C@]12CCC(=O)C=C1CC[C@@H]1[C@@H]2CC[C@@]2(C)[C@H]1CC[C@]2(C)O` 34.4%

====

Species: Rattus norvegicus
Test details: Open TG-GATES - Regimen: Daily Repeat
Type: toxicity, organism-based, Sprague-Dawley
Set-up: regimen Daily Repeat, gender Male, age 6 weeks
Conditions used: in vivo, po, 0 mg/kg, […], tissue Blood, route gavage, dose level Control, time 14 day
Measured property: Ret (%)
Provide only the numeric value, understood in %.

# Compound, Reading unit, Ret
data = [
    ("CCN1CCCC1CNC(=O)c1cc(S(N)(=O)=O)ccc1OC (stereo unspecified) [SULPIRIDE]", "%", 3.9),
]

Return Ret for the following compound: `C[C@]12CCC(=O)C=C1CC[C@@H]1[C@@H]2CC[C@@]2(C)[C@H]1CC[C@]2(C)O` 3.6

Return Ret for the following compound: `CCSCC[C@H](N)C(=O)O` 3.8

Return Ret for the following compound: `C#C[C@]1(O)CC[C@H]2[C@@H]3CCc4cc(O)ccc4[C@H]3CC[C@@]21C` 4.5

Return Ret for the following compound: `Nc1nc(N)c2nc(-c3ccccc3)c(N)nc2n1` 3.7

====

Organism: Rattus norvegicus
Test details: Open TG-GATES - Regimen: Daily Repeat
Assay type: toxicity, organism-based, Sprague-Dawley
Design: regimen Daily Repeat, gender Male, age 6 weeks
Conditions used: in vivo, po, 0 mg/kg, 72 h, tissue Blood, route gavage, dose level Control, time 3 day
Each entry below lists one item and its recorded Bas value.
Provide only the numeric value, understood in %.

# Compound, Assay value
measured = [
    ("O=C(N[C@H](CO)[C@H](O)c1ccc([N+](=O)[O-])cc1)C(Cl)Cl", 0),
    ("C#C[C@]1(O)CC[C@H]2[C@@H]3CCc4cc(O)ccc4[C@H]3CC[C@@]21C", 0.2),
    ("CCC(C)(C)C(=O)O[C@H]1C[C@@H](C)C=C2C=C[C@H](C)[C@H](CC[C@@H]3C[C@@H](O)CC(=O)O3)[C@H]21", 0),
]

Return Bas for the following compound: `Oc1ncnc2[nH]ncc12` 0

Return Bas for the following compound: CC(C)C(=O)Nc1ccc([N+](=O)[O-])c(C(F)(F)F)c1 [FLUTAMIDE] 0

Return Bas for the following compound: `CCc1oc2ccccc2c1C(=O)c1cc(I)c(O)c(I)c1` 0

Return Bas for the following compound: `CC(C)(S)[C@@H](N)C(=O)O` 0.2

====

Species: Rattus norvegicus
Test details: Open TG-GATES - Regimen: Daily Repeat
Type: toxicity, organism-based, Sprague-Dawley
Parameters: regimen Daily Repeat, gender Male, age 6 weeks
Conditions used: in vivo, po, 1000 mg/kg, 72 h, tissue Blood, route gavage, dose level High, time 3 day
Measured property: MCV (fL)
Provide only the numeric value, understood in fL.

Worked set:
# Compound, MCV (fL)
records = [
    ("O=C(N[C@H](CO)[C@H](O)c1ccc([N+](=O)[O-])cc1)C(Cl)Cl", 64.6),
    ("CC(C)(S)[C@@H](N)C(=O)O", 61.6),
    ("O=C(O)c1cccnc1", 62.3),
]

Now for the compound whose MCV we want.
Return MCV for the following compound: CCN1CCCC1CNC(=O)c1cc(S(N)(=O)=O)ccc1OC (centres undefined) [SULPIRIDE] 62.5
